# credit: paper PMC11249646

Target: CIB1 and αIIb interaction (CIB1-GST : F-αIIb peptide) (Homo sapiens, UniProt Q99828)
Construct: made in house; host or cells: BL-21 plus RIL cells (E. coli)
Sequence (Q99828 whole entry): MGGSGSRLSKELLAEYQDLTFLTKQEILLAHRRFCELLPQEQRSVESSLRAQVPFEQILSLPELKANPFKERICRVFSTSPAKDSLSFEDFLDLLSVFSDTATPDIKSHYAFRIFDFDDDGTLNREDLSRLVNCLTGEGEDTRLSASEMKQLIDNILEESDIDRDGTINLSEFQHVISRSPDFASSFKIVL
Assay: FP assay, 1536-well qHTS format (primary and confirmatory screen)
Type: binding
Settings: confirmatory screen; negative = inhibition
CONFIRMATORY SCREEN Efficacy (%) values, listed per item
Reply numerically in %, unit not repeated.

Reference set (3 entries):
COc1cc(C(=O)NS(=O)(=O)c2ccccc2C)ccc1Cc1cn(C)c2ccc(NC(=O)OC3CCCC3)cc12
-58
O=C(Cc1ccc(Cl)c(Cl)c1)Nc1ccc(S(=O)(=O)Nc2ccon2)cc1.O=C(O)C(F)(F)F
-39
Cc1ccc(S(=O)(=O)Nc2cnccc2C(=O)Nc2nc3ccccc3s2)cc1.O=C(O)C(F)(F)F
-52

I'd like to know its CONFIRMATORY SCREEN Efficacy (%). The compound in question is CCc1nnc(NS(=O)(=O)c2ccc(NC(=S)NC(=O)/C=C/c3ccc(F)cc3)cc2)s1
-36

I'd like to know its CONFIRMATORY SCREEN Efficacy (%). The compound in question is COC(=O)[C@]12CCC(C)(C)C[C@H]1[C@H]1C(=O)C=C3[C@@]4(C)C=C(C#N)C(=O)C(C)(C)[C@@H]4CC[C@@]3(C)[C@]1(C)CC2
-71

I'd like to know its CONFIRMATORY SCREEN Efficacy (%). The compound in question is O=Cc1c(-c2ccccc2)no[n+]1[O-]
-69

I'd like to know its CONFIRMATORY SCREEN Efficacy (%). The compound in question is CCCC1CCN(C(=O)COC(=O)c2ccc(S(C)(=O)=O)c([N+](=O)[O-])c2)CC1
-28
